Test system: B. mel. ss. intermedius
Type: biochemical
Conditions: strain NCTC 9336; β-naphthylamine liberated after 60 minutes, 37° C.
Peptide text beside a SMILES is read from it. * marks the point of attachment. βNA = c1ccc2cc(N*)ccc2c1
MEASUREMENT_LABEL: Aminopeptidase activity

| MOLECULE | MEASUREMENT_LABEL | VALUE |
| --- | --- | --- |
| CSCCC(N)C(=O)Nc1ccc2ccccc2c1 (racemic) | Aminopeptidase activity | 0 nmol |
| CC(C)C[C@H](NC(=O)[C@@H]1CCCN1C(=O)CN)C(=O)Nc1ccc2ccccc2c1 [Gly-Pro-Leu] (H-Gly-Pro-Leu-βNA) | Aminopeptidase activity | 1 nmol |
| C[C@H](N)C(=O)N[C@@H](C)C(=O)N[C@@H](Cc1ccccc1)C(=O)Nc1ccc2ccccc2c1 [Ala-Ala-Phe] (H-Ala-Ala-Phe-βNA) | Aminopeptidase activity | 0 nmol |
| Cl.N=C(N)NCCC[C@H](NC(=O)CNC(=O)CNC(=O)OCc1ccccc1)C(=O)Nc1ccc2ccccc2c1 [N-CBz-Gly-Gly-Arg] | Aminopeptidase activity | 1 nmol |
| NC(=O)[C@@H](N)CCC(=O)O [α-Glu, α -glutamine] | Aminopeptidase activity | 0 nmol |
| CC(C)C[C@H](N)C(=O)NCC(=O)O [Leu-Gly, Leucyl-glycine] (H-Leu-Gly-OH) | Aminopeptidase activity | 11 nmol |

---

System: S. salivarius
Assay: Aminopeptidase activity on β-naphthylamide substrates
Type: biochemical
Settings: strain ATCC 25975; β-naphthylamine liberated after 60 minutes, 37° C.
Peptide text beside a SMILES is read from it. * marks the point of attachment. βNA = c1ccc2cc(N*)ccc2c1
Reported values of Aminopeptidase activity for individual entries
MEASUREMENT_LABEL: Aminopeptidase activity (nmol)

| COMPOUND | MEASURED_TARGET | VALUE |
| --- | --- | --- |
| N=C(N)NCCC[C@H](NC(=O)[C@@H](N)CCCNC(=N)N)C(=O)O [Arg-Arg, Arginyl-arginine] (H-Arg-Arg-OH) | S. salivarius | 15 |
| CSCCC(N)C(=O)Nc1ccc2ccccc2c1 (racemic) | S. salivarius | 1 |
| C[C@H](N)C(=O)N[C@@H](C)C(=O)N[C@@H](Cc1ccccc1)C(=O)Nc1ccc2ccccc2c1 [Ala-Ala-Phe] (H-Ala-Ala-Phe-βNA) | S. salivarius | 0 |
| N=C(N)NCCC[C@H](NC(=O)CN)C(=O)O [Gly-Arg, Glycyl-arginine] (H-Gly-Arg-OH) | S. salivarius | 0 |
| CC(C)C[C@H](NC(=O)[C@@H]1CCCN1C(=O)CN)C(=O)Nc1ccc2ccccc2c1 [Gly-Pro-Leu] (H-Gly-Pro-Leu-βNA) | S. salivarius | 0 |
| CC(C)C[C@H](N)C(=O)NCC(=O)O [Leu-Gly, Leucyl-glycine] (H-Leu-Gly-OH) | S. salivarius | 0 |
| NC(=O)[C@@H](N)CCC(=O)O | S. salivarius | 0 |
| Cl.N=C(N)NCCC[C@H](NC(=O)CNC(=O)CNC(=O)OCc1ccccc1)C(=O)Nc1ccc2ccccc2c1 | S. salivarius | 0 |

---

Reported Aminopeptidase activity values for a set of compounds
System: Actinomyces israeli
Type: biochemical
Procedure: The enzyme activity was measured by the chromogenic properties of N-CBz-glycyl-glycyl-L-arginine-β-naphthylamide which upon hydrolysis gives a visible color. The aminopeptidase activities listed in the table reflect the nanomoles of β-naphthylamine liberated after 60 minutes under the conditions described below. […] The enzyme activity and the aminopeptidase activities were determined in the manner described above in regard to Table I.
Peptide text beside a SMILES is read from it.
MEASUREMENT_LABEL: Aminopeptidase activity

| COMPOUND | MEASURED_TARGET | MEASUREMENT_LABEL | VALUE |
| --- | --- | --- | --- |
| C[C@H](NC(=O)[C@@H](N)CCCCN)C(=O)O [Lys-Ala, Lysyl-alanine] (H-Lys-Ala-OH) | Actinomyces israeli | Aminopeptidase activity | 0 |
| NCC(=O)N1CCC[C@H]1C(=O)O [Gly-Pro, Glycyl-proline] (H-Gly-Pro-OH) | Actinomyces israeli | Aminopeptidase activity | 0 |
| N=C(N)NCCC[C@H](NC(=O)[C@@H](N)CCCNC(=N)N)C(=O)O [Arg-Arg, Arginyl-arginine] (H-Arg-Arg-OH) | Actinomyces israeli | Aminopeptidase activity | 0 |
| N=C(N)NCCC[C@H](NC(=O)CN)C(=O)O [Gly-Arg, Glycyl-arginine] (H-Gly-Arg-OH) | Actinomyces israeli | Aminopeptidase activity | 0 |

The measurements presented in this section are drawn from patent US4994376A.
